This collection of values is drawn from patent US11236129B2.

Assay type: physicochemical
Conditions: pH 7.8
Residues, ends and D or L forms follow the SMILES beside them.
quantity: solubility

Take a look at these entries with their results.
| compound | quantity | testValue |
| --- | --- | --- |
| CC[C@H](C)[C@H](NC(C)=O)C(=O)N[C@@H](Cc1c[nH]cn1)C(=O)N[C@H](C(=O)N[C@H](C(=O)N[C@H](C(=O)N1CCC[C@H]1C(=O)N[C@@H](C)C(=O)N[C@@H](CC(=O)O)C(=O)N[C@@H](CC(C)C)C(=O)N[C@@H](Cc1c[nH]c2ccccc12)C(=O)N[C@@H](CC(=O)O)C(=O)N[C@@H](Cc1c[nH]c2ccccc12)C(=O)N[C@H](C(=O)N[C@@H](CC(N)=O)C(=O)N[C@@H](CCC(=O)O)C(N)=O)[C@@H](C)CC)[C@@H](C)CC)[C@@H](C)O)C(C)C [SEQ ID NO: 12, IHVTIPADLWDWINE] (Ac-IHVTIPADLWDWINE-NH2) | solubility | ≥ 10 µM |
| CC(=O)N[C@H](C(=O)N[C@@H](Cc1c[nH]cn1)C(=O)N[C@H](C(=O)N[C@H](C(=O)N[C@@H](Cc1ccccc1)C(=O)N1CCC[C@H]1C(=O)N[C@@H](C)C(=O)N[C@@H](CC(=O)O)C(=O)N[C@@H](CC(C)C)C(=O)N[C@@H](Cc1c[nH]c2ccccc12)C(=O)N[C@@H](CCC(=O)O)C(=O)N[C@@H](Cc1c[nH]c2ccccc12)C(=O)N[C@H](C(=O)N[C@@H](CCCNC(=N)N)C(=O)N[C@@H](CCCNC(=N)N)C(N)=O)C(C)C)[C@@H](C)O)C(C)C)C(C)C [SEQ ID NO: 114] (Ac-VHVTFPADLWEWVRR-NH2) | solubility | < 50 µM |

Quick check: solubility of CC[C@H](C)[C@H](NC(=O)[C@H](Cc1c[nH]c2ccccc12)NC(=O)[C@H](CCC(=O)O)NC(=O)[C@H](Cc1ccc(O)cc1)NC(=O)[C@H](CC(C)C)NC(=O)[C@H](CC(=O)O)NC(=O)[C@H](C)NC(=O)[C@@H]1CCCN1C(=O)[C@@H](NC(=O)[C@@H](NC(=O)[C@@H](NC(=O)[C@H](CCSC)NC(=O)[C@@H](NC(C)=O)C(C)C)C(C)C)[C@@H](C)O)[C@@H](C)CC)C(=O)N[C@@H](CCC(=O)O)C(=O)N[C@@H](CCC(=O)O)C(N)=O [SEQ ID NO: 18] (Ac-VMVTIPADLYEWIEE-NH2) ?
≥ 50 µM

Entry CC[C@H](C)[C@H](NC(C)=O)C(=O)N[C@@H](Cc1c[nH]cn1)C(=O)N[C@H](C(=O)N[C@H](C(=O)N[C@H](C(=O)N1CCC[C@H]1C(=O)N[C@@H](C)C(=O)N[C@@H](CC(=O)O)C(=O)N[C@@H](CC(C)C)C(=O)N[C@@H](Cc1c[nH]c2ccccc12)C(=O)N[C@@H](CC(=O)O)C(=O)N[C@@H](Cc1c[nH]c2ccccc12)C(=O)N[C@H](C(=O)N[C@@H](CC(N)=O)C(=O)N[C@@H](CCCCN)C(N)=O)C(C)C)[C@@H](C)CC)[C@@H](C)O)C(C)C [SEQ ID NO: 8] (Ac-IHVTIPADLWDWVNK-NH2) please
> 10000 µM
